biological target: CCR2 (Homo sapiens, UniProt P41597); construct: expressed in transfected cells; experiment: CCR2 calcium activity assay on FLIPR Tetra in HEK-Gqi5 cells stably expressing CCR2; type: cell-based
Sequence (P41597 whole entry, species assumed): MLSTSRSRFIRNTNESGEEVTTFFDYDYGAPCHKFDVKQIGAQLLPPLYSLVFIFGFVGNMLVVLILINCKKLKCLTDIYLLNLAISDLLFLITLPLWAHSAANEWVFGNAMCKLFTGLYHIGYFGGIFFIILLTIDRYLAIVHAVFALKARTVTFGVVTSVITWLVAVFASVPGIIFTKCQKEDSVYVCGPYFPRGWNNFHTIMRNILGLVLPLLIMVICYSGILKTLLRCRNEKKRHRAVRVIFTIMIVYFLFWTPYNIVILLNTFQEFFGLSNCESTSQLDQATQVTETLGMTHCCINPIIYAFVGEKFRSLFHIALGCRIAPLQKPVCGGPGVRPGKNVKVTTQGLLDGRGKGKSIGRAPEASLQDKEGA
reported.property: CCR2 % ANTAG (%)
Give just the number in %; leave the unit off.

The cases that follow already have their CCR2 % ANTAG on record.
{"input.smiles": "Cc1ccc(NS(=O)(=O)c2ccc3c(c2)c(=O)sn3C)c(NS(=O)(=O)c2cccs2)c1", "readout.number": 99}
{"input.smiles": "Cn1sc(=O)c2cc(S(=O)(=O)Nc3ccccc3NC(=O)Nc3cccs3)ccc21", "readout.number": 58}
{"input.smiles": "Cn1sc(=O)c2cc(S(=O)(=O)Nc3ccccc3NS(=O)(=O)c3cccc(F)c3)ccc21", "readout.number": 100}
{"input.smiles": "Cc1ccc(S(=O)(=O)Nc2cc(Cl)c(Cl)cc2NS(=O)(=O)c2ccc3c(c2)c(=O)sn3C)s1", "readout.number": 95}
{"input.smiles": "Cn1sc(=O)c2cc(S(=O)(=O)Nc3cccc(OC(F)(F)F)c3)ccc21", "readout.number": 92}

Identify measured CCR2 % ANTAG corresponding to CCOc1ccc(S(=O)(=O)Nc2ccc(Cl)cc2NS(=O)(=O)c2ccc3c(c2)c(=O)sn3C)cc1
84

Identify measured CCR2 % ANTAG corresponding to Cc1cc(NS(=O)(=O)c2cccs2)c(NS(=O)(=O)c2ccc3c(c2)c(=O)sn3C)cc1Cl
91

Identify measured CCR2 % ANTAG corresponding to Cc1cc(NS(=O)(=O)c2ccc3c(c2)c(=O)sn3C)c(C)cc1Cl
80

Identify measured CCR2 % ANTAG corresponding to Cn1sc(=O)c2cc(S(=O)(=O)Nc3cc(Cl)ccc3NS(=O)(=O)c3cccc(Cl)c3)ccc21
91

###

biological target: CCR2 (Homo sapiens, UniProt P41597); construct: expressed in transfected cells; assay: CCR2 calcium activity assay on FLIPR Tetra in HEK-Gqi5 cells stably expressing CCR2; assay type: cell-based
IC50 by entry:
Give just the number in nM; leave the unit off.

{"input.smiles": "Cn1sc(=O)c2cc(S(=O)(=O)Nc3c(Cl)cccc3NS(=O)(=O)c3cccs3)ccc21", "assayed.target": "CCR2 (Homo sapiens, UniProt P41597)", "readout.number": 468}
{"input.smiles": "Cn1sc(=O)c2cc(S(=O)(=O)Nc3ccccc3NS(=O)(=O)c3cccc(C(F)(F)F)c3)ccc21", "assayed.target": "CCR2 (Homo sapiens, UniProt P41597)", "readout.number": 2210}

Identify measured IC50 corresponding to Cn1sc(=O)c2cc(S(=O)(=O)Nc3cccc(OC(F)(F)F)c3)ccc21
920

Identify measured IC50 corresponding to Cn1sc(=O)c2cc(S(=O)(=O)Nc3ccccc3NS(=O)(=O)c3ccccc3Cl)ccc21
1350

Identify measured IC50 corresponding to Cc1ccc(NS(=O)(=O)c2cccs2)c(NS(=O)(=O)c2ccc3c(c2)c(=O)sn3C)c1
377

Identify measured IC50 corresponding to COc1cccc(S(=O)(=O)Nc2cc(Cl)c(Cl)cc2NS(=O)(=O)c2ccc3c(c2)c(=O)sn3C)c1
651

Identify measured IC50 corresponding to COc1ccc(NS(=O)(=O)c2cccs2)c(NS(=O)(=O)c2ccc3c(c2)c(=O)sn3C)c1
1410

Identify measured IC50 corresponding to Cn1sc(=O)c2cc(S(=O)(=O)Nc3cccc4c3OCCO4)ccc21
1450

###

target: CCR2 (Homo sapiens); assay: CCR2 calcium activity assay on FLIPR Tetra in HEK-Gqi5 cells stably expressing CCR2
Recorded IC50 determines the label; the label ranges are label 0 (below 0.7 µM), label 1 (0.7 µM to below 2 µM), label 2 (2 µM or more)

Take a look at these entries with their results.
{"compound": "Cn1sc(=O)c2cc(S(=O)(=O)Nc3cccc(Cl)c3NS(=O)(=O)c3cccs3)ccc21", "category.label": "label 1"}
{"compound": "CN(C)c1cccc(S(=O)(=O)Nc2ccc(Cl)cc2NS(=O)(=O)c2ccc3c(c2)c(=O)sn3C)c1", "category.label": "label 0"}
{"compound": "Cc1cc(NS(=O)(=O)c2cccs2)c(NS(=O)(=O)c2ccc3c(c2)c(=O)sn3C)cc1Cl", "category.label": "label 0"}

Band for Cc1cc(NS(=O)(=O)c2ccc3c(c2)c(=O)sn3C)c(C)cc1Cl ?
label 1

Band for Cn1sc(=O)c2cc(S(=O)(=O)Nc3cc(Cl)c(Cl)cc3NS(=O)(=O)c3cc(Cl)c(Cl)s3)ccc21 ?
label 2

Band for Cn1sc(=O)c2cc(S(=O)(=O)NCc3ccccc3NS(=O)(=O)c3cccs3)ccc21 ?
label 2

Band for Cn1sc(=O)c2cc(S(=O)(=O)Nc3ccccc3NS(=O)(=O)c3ccco3)ccc21 ?
label 1

Band for Cn1sc(=O)c2cc(S(=O)(=O)Nc3ccccc3NS(=O)(=O)c3c[nH]cn3)ccc21 ?
label 2

###

Biological target: CCR2 (Homo sapiens, UniProt P41597)
Test: CCR2 calcium activity assay on FLIPR Tetra in HEK-Gqi5 cells stably expressing CCR2
Procedure: HEK-Gqi5 cells stably expressing CCR2 were cultured in (DMEM high glucose, 10% FBS, 1% PSA, 400 μg/ml geneticin and 50 μg/ml hygromycin. Appropriate positive control chemokines (MCP-1, MIP1A or RANTES) was used as the positive control agonist for screening compound-induced calcium activity assayed on the FLIPR^Tetra. The drug plates were prepared in 384-well microplates using the EP3 and the MuItiPROBE robotic liquid handling systems. Compounds were synthesized and tested for CCR2 activity.
Values of IC50 strictly less than 1000 nM map to Satisfied, and values of at least 1000 nM map to Not satisfied.

Take a look at these entries with their results.
{"input.smiles": "Cc1cc(NS(=O)(=O)c2ccc3c(c2)c(=O)sn3C)c(NS(=O)(=O)c2cccs2)cc1Cl", "category.label": "Satisfied"}
{"input.smiles": "Cn1sc(=O)c2cc(S(=O)(=O)Nc3ccccc3NS(=O)(=O)c3nnc[nH]3)ccc21", "category.label": "Not satisfied"}
{"input.smiles": "Cn1sc(=O)c2cc(S(=O)(=O)Nc3ccccc3NS(=O)(=O)c3cc(Cl)cc(Cl)c3)ccc21", "category.label": "Not satisfied"}
{"input.smiles": "COc1cccc(S(=O)(=O)Nc2ccc(Cl)cc2NS(=O)(=O)c2ccc3c(c2)c(=O)sn3C)c1", "category.label": "Satisfied"}

Consider the compound CC(C)n1sc(=O)c2cc(S(=O)(=O)Nc3cccc4c3OC(F)(F)C(F)(F)O4)ccc21 . Is its IC50 strictly less than 1000 nM?
Satisfied

Consider the compound Cn1sc(=O)c2cc(S(=O)(=O)Nc3cc(Cl)ccc3NCc3cccs3)ccc21 . Is its IC50 strictly less than 1000 nM?
Not satisfied

Consider the compound Cn1cnc(S(=O)(=O)Nc2ccccc2NS(=O)(=O)c2ccc3c(c2)c(=O)sn3C)c1 . Is its IC50 strictly less than 1000 nM?
Satisfied

Consider the compound Cn1sc(=O)c2cc(S(=O)(=O)Nc3ccccc3NS(=O)(=O)c3cc(F)cc(F)c3)ccc21 . Is its IC50 strictly less than 1000 nM?
Satisfied

###

biological target: CCR2 (Homo sapiens, UniProt P41597); construct: expressed in transfected cells; test: CCR2 calcium activity assay on FLIPR Tetra in HEK-Gqi5 cells stably expressing CCR2; assay type: cell-based
CCR2 % ANTAG by entry:
Give just the number in %; leave the unit off.

{"compound": "Cn1sc(=O)c2cc(S(=O)(=O)Nc3cc(Cl)cnc3NS(=O)(=O)c3cccs3)ccc21", "readout.number": 48}
{"compound": "Cn1sc(=O)c2cc(S(=O)(=O)N[C@@H]3CCCC[C@H]3NS(=O)(=O)c3cccs3)ccc21 (relative stereo)", "readout.number": 79}
{"compound": "COc1ccc(NS(=O)(=O)c2cccs2)c(NS(=O)(=O)c2ccc3c(c2)c(=O)sn3C)c1", "readout.number": 104}

Then this compound:
Identify measured CCR2 % ANTAG corresponding to Cn1sc(=O)c2cc(S(=O)(=O)Nc3ccccc3NS(=O)(=O)c3ccccc3F)ccc21
103

###

molecular target: CCR2 (Homo sapiens, UniProt P41597); construct: expressed in transfected cells; assay: CCR2 calcium activity assay on FLIPR Tetra in HEK-Gqi5 cells stably expressing CCR2; format: cell-based
CCR2 % ANTAG by entry:
Give just the number in %; leave the unit off.

{"molecule": "COc1cccc(NS(=O)(=O)c2ccc3c(c2)c(=O)sn3C)c1", "CCR2 % ANTAG / %": 84}
{"molecule": "Cn1sc(=O)c2cc(S(=O)(=O)Nc3ccccc3NS(=O)(=O)c3cc(Cl)cc(Cl)c3)ccc21", "CCR2 % ANTAG / %": 95}
{"molecule": "Cn1sc(=O)c2cc(S(=O)(=O)Nc3ccccc3NS(=O)(=O)c3cc(Cl)c(Cl)s3)ccc21", "CCR2 % ANTAG / %": 89}

// fetch CCR2 % ANTAG for Cn1sc(=O)c2cc(S(=O)(=O)N[C@@H]3CCCC[C@H]3NS(=O)(=O)c3ccc(Cl)c(C(F)(F)F)c3)ccc21 (relative stereo) ; system: CCR2 (Homo sapiens, UniProt P41597)
96

// fetch CCR2 % ANTAG for Cn1sc(=O)c2cc(S(=O)(=O)Nc3cccc4c3OCO4)ccc21 ; system: CCR2 (Homo sapiens, UniProt P41597)
73
